Measured values drawn from the supplement of paper PMC10127200 for this set.

Test system: A549
test details: Euclidean distance of Cell Painting phenotypic profile (signed KS, 77 features) to DMSO centroid (dimensionless distance); 5 or 10 uM (library dependent); higher = stronger phenotypic change vs DMSO (phenoactivity)
conditions: 48 h
Note to self: values exactly at 0.8 are satisfied. So Euclidean distance at or above 0.8 is satisfied, below is not satisfied.

* CCCc1cc(=O)[nH]c(=S)[nH]1 [Propylthiouracil] | satisfied

Then this compound:
Check the entry Cc1oc(=O)oc1CN1CCN(c2cc3c(cc2F)c(=O)c(C(=O)O)c2n3C(C)S2)CC1 (stereo not given) [Prulifloxacin (NM441. AF 3013)] : does Euclidean distance equal or exceed 0.8?
not satisfied

====

Tested on: 786-O
test details: Euclidean distance of Cell Painting phenotypic profile (signed KS, 77 features) to DMSO centroid (dimensionless distance); 5 or 10 uM (library dependent); higher = stronger phenotypic change vs DMSO (phenoactivity)
conditions: 48 h
Quick rule: Euclidean distance of at least 1 means Fulfilled, below that means Not fulfilled.

- COc1cc2ncnc(Nc3cccc(Cl)c3)c2cc1OC [AG-1478 (Tyrphostin AG-1478)]: Fulfilled
- COc1cc(N2CCC(N3CCN(C)CC3)CC2)ccc1Nc1ncc(Cl)c(Nc2ccccc2P(C)(C)=O)n1: Fulfilled
- CC(c1cc2ccccc2s1)N(O)C(N)=O (stereo unspecified) [Zileuton]: Fulfilled
- CC(C)[C@H]1C(=O)N[C@@H](CCCNC(=N)N)C(=O)NCC(=O)N[C@@H](CC(=O)O)C(=O)N[C@H](Cc2ccccc2)C(=O)N1C [Cilengitide]: Fulfilled

Please look at the following molecule next.
Form field: Euclidean distance at least 1? Entry: COc1ccc2[nH]cc(CCNC(C)=O)c2c1 [Melatonin]
Not fulfilled

====

System: OVCAR4
test details: Euclidean distance of Cell Painting phenotypic profile (signed KS, 77 features) to DMSO centroid (dimensionless distance); 5 or 10 uM (library dependent); higher = stronger phenotypic change vs DMSO (phenoactivity)
conditions: 48 h
recorded metric: Euclidean distance
# respond with the number and nothing more

Check out these entries, answers already filled in.
- Cc1nnc(C(=O)NC(C)(C)c2nc(C(=O)NCc3ccc(F)cc3)c(O)c(=O)n2C)o1 [Raltegravir potassium]: 1.04
- C[C@H]1c2cccc(O)c2C(=O)C2=C(O)[C@]3(O)C(=O)C(C(N)=O)=C(O)[C@@H](N(C)C)[C@@H]3[C@@H](O)[C@@H]21 [Doxycycline monohydrate]: 0.672
- CC(C)N(CC[C@H](c1ccccc1)c1cc(CO)ccc1O)C(C)C: 1.05

Item O=C(O)c1ccc(CN2CCC(CN[C@@H]3C[C@H]3c3ccccc3)CC2)cc1 with OVCAR4 - Euclidean distance?
1.06

Observed Euclidean distance on OVCAR4 for Cc1cc(Cn2cnc3c2CC(C(=O)O)N(C(=O)C(c2ccccc2)c2ccccc2)C3)ccc1N(C)C (stereo not drawn) , please.
0.828

Value wanted: Euclidean distance (OVCAR4) of entry CC[C@@H]1/C=C(\C)C[C@H](C)C[C@H](OC)[C@H]2O[C@@](O)(C(=O)C(=O)N3CCCC[C@H]3C(=O)O[C@H](/C(C)=C/[C@@H]3CC[C@@H](O)[C@H](OC)C3)[C@H](C)[C@@H](O)CC1=O)[C@H](C)C[C@@H]2OC
0.799

Return Euclidean distance measured with OVCAR4 given this molecule: Cc1ccc(NS(=O)(=O)c2cccc(C#N)c2)c2[nH]cc(C#N)c12
2.09

Record O=C(/C=C/c1ccc(O)cc1)c1ccc(O)cc1O : what is its Euclidean distance with OVCAR4?
0.885

Form field: Euclidean distance recorded for O=C(Nc1nc2cccc(-c3ccc(CN4CCS(=O)(=O)CC4)cc3)n2n1)C1CC1 with OVCAR4 (enter value)
1.22

API: value(readout= Euclidean distance, system= OVCAR4, query= CO[C@H]1CC[C@H](N2C(=O)CNc3ncc(-c4ccc(C(C)(C)O)nc4)nc32)CC1 )
3

====

System: HEPG2
test details: Euclidean distance of Cell Painting phenotypic profile (signed KS, 77 features) to DMSO centroid (dimensionless distance); 5 or 10 uM (library dependent); higher = stronger phenotypic change vs DMSO (phenoactivity)
conditions: 48 h
Structures can show the parent of a compound that is named as a salt.
Label Satisfied when Euclidean distance is at or above 2; anything below gets Not satisfied.

• Cc1cc([C@@H](C)Nc2ccccc2C(=O)O)c2nc(N3CCOCC3)cc(=O)n2c1 = Not satisfied
• Nc1nc2[nH]cnc2c(=S)[nH]1 = Satisfied
• CC(C)[C@H]1C(=O)N[C@@H](CCCNC(=N)N)C(=O)NCC(=O)N[C@@H](CC(=O)O)C(=O)N[C@H](Cc2ccccc2)C(=O)N1C [Cilengitide] = Satisfied
• C[C@@H](Nc1cc(F)cc(F)c1)c1cc(C(=O)N(C)C)cc2c(=O)cc(N3CCOCC3)oc12 = Not satisfied
• O=C(Nc1cccc(Cl)c1)Nc1ncc(CCNc2ncnc3ccsc23)s1 [SNS-314 Mesylate] = Not satisfied
• O=C1N=C(O)NC1(c1ccccc1)c1ccccc1 [Phenytoin sodium] = Not satisfied

In the following, a different compound is considered.
State whether the measured Euclidean distance reaches 2, counting equality as reaching it, for C/C=C1/[C@H](O[C@@H]2O[C@H](CO)[C@@H](O)[C@H](O)[C@H]2O)OC=C(C(=O)OC)[C@H]1CC(=O)OCCc1ccc(O)c(O)c1
Not satisfied

====

# key: entry, value: Euclidean distance
Test system: HEPG2
test details: Euclidean distance of Cell Painting phenotypic profile (signed KS, 77 features) to DMSO centroid (dimensionless distance); 5 or 10 uM (library dependent); higher = stronger phenotypic change vs DMSO (phenoactivity)
conditions: 48 h
Counter-ions that a name gives are not always drawn.
Lab note: record just the number, no unit beside it.

Reference set, count: 2
• O=c1c(O)c(-c2ccc(O)cc2)oc2cc(O)cc(O)c12 [Kaempferol] = 0.783
• CN1CCN(CCOc2cc(OC3CCOCC3)c3c(Nc4c(Cl)ccc5c4OCO5)ncnc3c2)CC1 [Saracatinib (AZD0530)] = 1.98

Query (compound): CCCCCCCCCCCCC[N+](C)(C)Cc1ccccc1 [Benzalkonium chloride] ; field requested: Euclidean distance
2.12

Look up Euclidean distance: CCCN[C@H]1CCc2nc(N)sc2C1 [Pramipexole]
0.869

Sample C[C@H](CCC(=O)O)[C@H]1CC[C@H]2[C@@H]3[C@H](O)C[C@@H]4C[C@H](O)CC[C@]4(C)[C@H]3C[C@H](O)[C@]12C [Cholic acid] — what was its Euclidean distance?
0.875

Entry under review: CC(C)C[C@H](NC(=O)[C@H](CCc1ccccc1)NC(=O)CN1CCOCC1)C(=O)N[C@@H](Cc1ccccc1)C(=O)N[C@@H](CC(C)C)C(=O)[C@@]1(C)CO1 [Carfilzomib (PR-171)] . Reported Euclidean distance?
4.79

Request the reported Euclidean distance associated with C/C(=N\NC(=S)N1CCC1)c1ccccn1
4.41

Which Euclidean distance is reported for this compound? COc1ccnc2[nH]cc(C(=O)C(=O)N3CCN(C(=O)c4ccccc4)C[C@H]3C)c12
0.554

I have this compound here, CC(C)(c1ccc(O)cc1)c1ccc(O)cc1 [Bisphenol A] , and I need its recorded Euclidean distance.
0.694

Using the record for C[N+]1(C)CCC(OC(=O)C(O)(c2ccccc2)C2CCCC2)C1 (stereo not drawn) [Glycopyrrolate] , report its Euclidean distance.
0.678

Can you look up the measured Euclidean distance of COc1c(C)c2c(c(O)c1C/C=C(\C)CCC(=O)OCCN1CCOCC1)C(=O)OC2 [Mycophenolate Mofetil] for me?
2.76

What Euclidean distance value was documented for this compound, CCN(CC)C(=S)SSC(=S)N(CC)CC [Disulfiram] ?
0.547

Look up Euclidean distance: CC(C)Cc1ccc([C@@H](C)C(=O)NS(C)(=O)=O)cc1 [Reparixin (Repertaxin)]
1.25

Fill in: Euclidean distance of CCOC(=O)C1=C(C)NC(C)=C(C(=O)OC)C1c1cccc(Cl)c1Cl (stereo not drawn) [Felodipine] is ___
0.85

Suppose we examine the compound COc1ccc(OC)c(C(O)CNC(=O)CN)c1 (stereo not drawn) [Midodrine] ; what Euclidean distance value has been reported?
0.342

Give the measured Euclidean distance of Cc1c(O)cccc1C(=O)N[C@@H](CSc1ccccc1)[C@H](O)CN1C[C@H]2CCCC[C@H]2C[C@H]1C(=O)NC(C)(C)C [Nelfinavir Mesylate] .
1.01

Return reported Euclidean distance; argument: CCOc1cc(N)c([N+](=O)[O-])cc1C(=O)NC1CCN(CC2CC=CCC2)CC1 (stereo not drawn) [Cinitapride Hydrogen Tartrate]
0.924

What value of measured Euclidean distance is listed for Cc1ccc(C(=O)N(CCCN)[C@@H](c2oc3cc(Cl)ccc3c(=O)c2Cc2ccccc2)C(C)C)cc1 ?
2.19

====

Tested on: OVCAR4
test details: Euclidean distance of Cell Painting phenotypic profile (signed KS, 77 features) to DMSO centroid (dimensionless distance); 5 or 10 uM (library dependent); higher = stronger phenotypic change vs DMSO (phenoactivity)
conditions: 48 h
recorded metric: Euclidean distance
Note: the reply should be a number with no unit written.

# count of solved cases: 3
- CCC[C@@H](C=O)NC(=O)[C@H](CC(C)C)NC(=O)[C@H](CC(C)C)NC(=O)OCc1ccccc1: 5.15
- Cn1cc(/C=C/C(=O)c2cccc(F)c2)cc1/C=C/C(=O)NO: 0.539
- Cc1c(C(=O)NN2CCCCC2)nn(-c2ccc(Cl)cc2Cl)c1-c1ccc(I)cc1: 0.903

For OVCAR4, provide Euclidean distance of CC(=O)N1CCN(CCOc2ccc(C3CCN(C4=Nn5c(nnc5C(F)(F)F)CC4)CC3)cc2)CC1 please.
2.66

Field: Euclidean distance (OVCAR4). Entry: Cc1ccc(Cl)cc1N(CC(=O)Nc1c(F)cccc1F)S(C)(=O)=O
0.763

Notebook entry, OVCAR4 assay: Euclidean distance of COc1cc2c(cc1OC)C(=O)C(CC1CCN(Cc3ccccc3)CC1)C2 (centres undefined) = ?
1.27

Any idea what Euclidean distance came out for CC(O)c1cc(C(=O)N[C@@H](C)Cn2ccc(-c3ccc(C#N)c(Cl)c3)n2)n[nH]1 (some centres undefined) [Darolutamide (ODM-201)] on OVCAR4?
0.668

Observed Euclidean distance on OVCAR4 for COc1cc(CCc2cc(NC(=O)c3ccc(N4CC(C)NC(C)C4)cc3)n[nH]2)cc(OC)c1 (centres undefined) , please.
1.46
